Tested on: Alopecurus myosuroides
Test: Post-emergence herbicidal action against ALOMY
Type: in vivo
Settings: comparative experiment, 5 g a.i./ha
resultType: Herbicidal action against ALOMY
Give your answer as a number; write no unit.

CN(C)C(=O)c1c(C(F)(F)F)ccc(C(=O)Nc2nnnn2C)c1Cl [Example 1-123] | 100

QUERY: Please report the recorded Herbicidal action against ALOMY for CCn1nnnc1NC(=O)c1ccc(C(F)(F)F)c(C(=O)N(C)C)c1Cl [Example 2-123] .
RESULT: 90

QUERY: Please report the recorded Herbicidal action against ALOMY for CCn1nnnc1NC(=O)c1ccc(C(F)F)c(C(=O)N(C)C)c1Cl [Example 2-154] .
RESULT: 90

QUERY: Please report the recorded Herbicidal action against ALOMY for CN(C)C(=O)c1c(C(F)F)ccc(C(=O)Nc2nnnn2C)c1Cl [Example 1-154] .
RESULT: 90
